tested_system: Kras and SOS1 (biotin-tagged human Kras loaded with GDP, His-tagged human SOS1) (Homo sapiens, UniProt P01116, G12D)
Construct: made in house; host or cells: E. coli (stated for Kras only)
Sequence (P01116 1-188 isoform P01116-2 G12D): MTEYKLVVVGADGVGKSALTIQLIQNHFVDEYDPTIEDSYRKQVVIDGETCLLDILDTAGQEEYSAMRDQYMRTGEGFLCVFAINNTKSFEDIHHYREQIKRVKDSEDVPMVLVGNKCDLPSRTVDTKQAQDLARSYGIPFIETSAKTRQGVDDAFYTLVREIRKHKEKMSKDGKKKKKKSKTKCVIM
test_protocol: Protein-protein interaction inhibition between Kras and SOS1 (KrasGl2D-SOS PPI) using AlphaScreen
Assay type: binding
stated_conditions: AlphaScreen; biotin-tagged human Kras loaded with GDP, His-tagged human SOS1; read-out: KRAS G12D-SOS PPI IC50
Starred links: 1 amine or outer side, 2 acyl side, 3 side chain; linkers in the order of their positions; H or OH if unused. Positions of bridges follow the written chain, without caps; N, C: chain ends. Non-standard residues stand in square brackets, D forms with d. Residues, ends and D or L forms follow the SMILES beside them. *: point of attachment. hPhe(3-Cl-4-CF3) = N[C@@H](CCc1ccc(C(F)(F)F)c(Cl)c1)C(=O)O; hPhe(3-F,4-CF3) = N[C@@H](CCc1ccc(C(F)(F)F)c(F)c1)C(=O)O; hPhe(4-CF3) = N[C@@H](CCc1ccc(C(F)(F)F)cc1)C(=O)O; NMePhe(4-Cl) = CN[C@@H](Cc1ccc(Cl)cc1)C(=O)O; NMeMet(O2) = CN[C@@H](CCS(C)(=O)=O)C(=O)O; NMedβ3hAla = C[C@H](CC(=O)[*:2])N(C)[*:1]; dαMeGly(allyl) = C=CC[C@@](C)(N)C(=O)O; NMeAla(cPr) = CN[C@@H](CC1CC1)C(=O)O; NMeCha = CN[C@@H](CC1CCCCC1)C(=O)O; NMeGly(cPr) = CN[C@H](C(=O)O)C1CC1; NMeChg = CN[C@H](C(=O)O)C1CCCCC1; NMeD = CN[C@@H](CC(=O)O)C(=O)O; NMeL = CN[C@@H](CC(C)C)C(=O)O; NMeV = CN[C@H](C(=O)O)C(C)C; d(β3hA) = C[C@@H](N)CC(=O)O; NMeS = CN[C@@H](CO)C(=O)O; Ac6c = NC1(C(=O)O)CCCCC1; NMeA = CN[C@@H](C)C(=O)O; Piperidide = C1CCN(*)CC1; Pyrrolidide = C1CCN(*)C1; Ac5c = NC1(C(=O)O)CCCC1; X47 = Fc1cncc(C*)c1; Sar = CNCC(=O)O
reported_metric: IC50 (nM)
Record the value in nM, omitting the unit from your answer.

## Input Would you kindly share the measured IC50 for CC[C@H](C)[C@@H]1NC(=O)[C@H](C2CC2)N(C)C(=O)C[C@@H](C(=O)N2CCCCC2)N(C)C(=O)[C@H](C2CCCCC2)N(C)C(=O)C2(CCCC2)NC(=O)[C@@H]2CCCN2C(=O)[C@H](CCc2ccc(C(F)(F)F)c(Cl)c2)NC(=O)CN(C)C(=O)[C@H](CC2CCCCC2)N(C)C(=O)CN(C)C(=O)CN(C)C1=O [Compound 1796] ([NMeGly(cPr)]I[Sar][Sar][NMeCha][Sar][hPhe(3-Cl-4-CF3)]P[Ac5c][NMeChg][NMeD]-Piperidide; lactam N-11) ?
## Output 0.76

## Input How about CC[C@H](C)[C@@H]1NC(=O)[C@H](C)N(C)C(=O)C[C@@H](C(=O)N2CCCC2)NC(=O)[C@H](CC(C)C)N(C)C(=O)[C@H](COCc2cncc(F)c2)N(C)C(=O)[C@H](CC(C)C)NC(=O)[C@H](CCc2ccc(C(F)(F)F)cc2)NC(=O)CN(C)C(=O)[C@H](Cc2ccc(Cl)cc2)N(C)C(=O)CN(C)C(=O)CN(C)C1=O [Compound 517] ([NMeA]I[Sar][Sar][NMePhe(4-Cl)][Sar][hPhe(4-CF3)]L[NMeS](X47)[NMeL]D-Pyrrolidide; lactam N-11) ?
## Output 28

## Input How about CC[C@H](C)[C@@H]1NC(=O)[C@H](CC(C)C)N(C)C(=O)C[C@@H](C(=O)N2CCCCC2)N(C)C(=O)[C@H](C2CCCCC2)N(C)C(=O)C2(CCCC2)NC(=O)[C@@H]2CCCN2C(=O)[C@H](CCc2ccc(C(F)(F)F)c(Cl)c2)NC(=O)CN(C)C(=O)[C@H](CCS(C)(=O)=O)N(C)C(=O)CN(C)C(=O)CN(C)C1=O [Compound 1094] ([NMeL]I[Sar][Sar][NMeMet(O2)][Sar][hPhe(3-Cl-4-CF3)]P[Ac5c][NMeChg][NMeD]-Piperidide; lactam N-11) ?
## Output 2.2

## Input How about C=CC[C@@]1(C)NC(=O)[C@@H]2CCCN2C(=O)[C@H](CCc2ccc(C(F)(F)F)c(Cl)c2)NC(=O)CN(C)C(=O)[C@H](CC2CCCCC2)N(C)C(=O)CN(C)C(=O)CN(C)C(=O)[C@H]([C@@H](C)CC)NC(=O)[C@H](CC(C)C)N(C)C(=O)C[C@@H](C)N(C)C(=O)[C@H](C(C)C)N(C)C1=O [Compound 1038] (cyclo(I[Sar][Sar][NMeCha][Sar][hPhe(3-Cl-4-CF3)]P[dαMeGly(allyl)][NMeV][NMedβ3hAla][NMeL])) ?
## Output 18

## Input How about CC[C@H](C)[C@@H]1NC(=O)[C@H](CC(C)C)N(C)C(=O)C[C@@H](C(=O)N2CCCCC2)N(C)C(=O)[C@H](CC2CC2)N(C)C(=O)C2(CCCC2)NC(=O)[C@@H]2CCCN2C(=O)[C@H](CCc2ccc(C(F)(F)F)c(Cl)c2)NC(=O)CN(C)C(=O)[C@H](CC2CCCCC2)N(C)C(=O)CN(C)C(=O)CN(C)C1=O [Compound 787] ([NMeL]I[Sar][Sar][NMeCha][Sar][hPhe(3-Cl-4-CF3)]P[Ac5c][NMeAla(cPr)][NMeD]-Piperidide; lactam N-11) ?
## Output 2.9

## Input How about CC[C@H](C)[C@@H]1NC(=O)[C@H](CC(C)C)N(C)C(=O)C[C@@H](C)NC(=O)[C@H](CC(C)C)N(C)C(=O)C2(CCCCC2)NC(=O)[C@@H]2CCCN2C(=O)[C@H](CCc2ccc(C(F)(F)F)c(F)c2)NC(=O)CN(C)C(=O)[C@H](CC2CCCCC2)N(C)C(=O)CN(C)C(=O)CN(C)C1=O [Compound 231] (cyclo([Ac6c][NMeL][d(β3hA)][NMeL]I[Sar][Sar][NMeCha][Sar][hPhe(3-F,4-CF3)]P)) ?
## Output 120
